Experiment: AUC (0 to infinity) in adipose tissue of healthy human at 200 mg/l administered via microdialysis probe up to 12 hrs
Assay type: ADME
Set-up: time infinity
property-name: AUC(0-inf)

[Q] Tell me the measured AUC(0-inf) of `Nc1nc(/C(=N/O)C(=O)N[C@@H]2C(=O)N3C(C(=O)O)=C(/C=C4\CCN([C@@H]5CCNC5)C4=O)CS[C@H]23)ns1` , please.
[A] 36500 ng·h/mL

====

Test: Half life in adipose tissue of healthy human at 200 mg/l administered via microdialysis probe up to 12 hrs
Assay type: ADME, tissue-based
property-name: half-life (h)
// units = h; emit number, no label

[Q] Tell me the measured half-life of `Nc1nc(/C(=N/O)C(=O)N[C@@H]2C(=O)N3C(C(=O)O)=C(/C=C4\CCN([C@@H]5CCNC5)C4=O)CS[C@H]23)ns1` , please.
[A] 2.56

Sourced from ChEMBL document CHEMBL1649472
